- Measurement Parameters: in sec-butanol, 298.2 K
Observable: solubility (mole fraction)
Please reply with the number alone, leaving off any unit.

Quick note, solubility (mole fraction) for O=C(c1ccccc1)c1ccc(O)cc1O landed at 0.0103

====

- Measurement Parameters: in n-octane, 298.2 K
Observable: solubility (mole fraction)
Please reply with the number alone, leaving off any unit.

Quick note, solubility (mole fraction) for O=C(c1ccccc1)c1ccc(O)cc1O landed at 4.43e-05

====

- Measurement Parameters: in toluene, 298.2 K
Observable: solubility (mole fraction)
Please reply with the number alone, leaving off any unit.

Quick note, solubility (mole fraction) for O=C(c1ccccc1)c1ccc(O)cc1O landed at 0.00364

====

- Measurement Parameters: in n-hexanol, 298.2 K
Observable: solubility (mole fraction)
Please reply with the number alone, leaving off any unit.

Quick note, solubility (mole fraction) for O=C(c1ccccc1)c1ccc(O)cc1O landed at 0.0161

====

- Measurement Parameters: in ethylbenzene, 298.2 K
Observable: solubility (mole fraction)
Please reply with the number alone, leaving off any unit.

Quick note, solubility (mole fraction) for O=C(c1ccccc1)c1ccc(O)cc1O landed at 0.00408

====

- Measurement Parameters: in o-xylene, 298.2 K
Observable: solubility (mole fraction)
Please reply with the number alone, leaving off any unit.

Quick note, solubility (mole fraction) for O=C(c1ccccc1)c1ccc(O)cc1O landed at 0.00429

====

- Measurement Parameters: in n-heptane, 298.2 K
Observable: solubility (mole fraction)
Please reply with the number alone, leaving off any unit.

Quick note, solubility (mole fraction) for O=C(c1ccccc1)c1ccc(O)cc1O landed at 3.82e-05
